biological target: Glyceraldehyde-3-phosphate dehydrogenase (Homo sapiens); test: Inhibition of GAPDH
Sequence (P04406 whole entry): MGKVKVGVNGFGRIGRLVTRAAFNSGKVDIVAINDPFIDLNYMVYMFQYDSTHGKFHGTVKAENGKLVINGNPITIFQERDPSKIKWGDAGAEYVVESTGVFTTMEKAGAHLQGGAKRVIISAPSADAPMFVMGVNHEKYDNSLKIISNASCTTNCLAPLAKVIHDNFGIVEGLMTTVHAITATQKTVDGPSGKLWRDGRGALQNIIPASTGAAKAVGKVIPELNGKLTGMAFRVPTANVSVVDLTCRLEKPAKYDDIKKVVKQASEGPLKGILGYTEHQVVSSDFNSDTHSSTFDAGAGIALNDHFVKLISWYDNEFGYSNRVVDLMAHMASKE
Measurement label: IC50

1) O=C(NCCO)c1cc(-c2ccc(Cl)c(Cl)c2Cl)n[nH]1: > 10 µM

###

Below are IC50 values recorded for Alkaline phosphatase, tissue-nonspecific isozyme (Homo sapiens, UniProt P05186).
Measurement label: IC50 (nM)

1) O=C(c1cc(-c2ccc(Cl)cc2Cl)n[nH]1)N(CCO)CCO: 47
2) NNC(=O)c1cc(-c2ccc(Cl)cc2Cl)n[nH]1: 44
3) O=C(NCCO)c1cc(-c2cc(F)c(F)cc2F)n[nH]1: 134
4) O=C(NCCO)c1cc(-c2ccc(Cl)cc2Cl)n[nH]1: 44
5) CN1CCN(C(=O)c2cc(-c3ccc(Cl)cc3Cl)n[nH]2)CC1: 828
6) O=C(NCCCO)c1cc(-c2ccc(Cl)cc2Cl)n[nH]1: 31
7) O=C(c1cc(-c2ccc(Cl)cc2Cl)n[nH]1)N1CCOCC1: 574
8) CN(C)C(=O)c1cc(-c2ccc(Cl)cc2Cl)n[nH]1: 119
9) CC(C)NC(=O)c1cc(-c2cc(F)c(Cl)cc2Cl)n[nH]1: 4850
10) O=C(c1cc(-c2cc(F)c(Cl)cc2Cl)n[nH]1)N(CCO)CCO: 127
11) CC(C)CCNC(=O)c1cc(-c2ccc(Cl)cc2Cl)n[nH]1: 459
12) CCN1CCN(C(=O)c2cc(-c3ccc(Cl)cc3Cl)n[nH]2)CC1: 488
